System: episomal HPV16 DNA in W12-20850 cells
Test: W-12 cellular assay (episomal HPV-16 DNA, hybrid capture)
Type: cell-based, HPV16 (human papillomavirus)
Conditions: Human papillomavirus 16, 96 h, four days incubation, episomal HPV-16 DNA quantified by hybrid capture, inhibition relative to untreated control cells
pIC50: −log10 of the molar value.
measurement_label: pIC50

Previously resolved entries follow.
{"columns": ["molecule", "value_observed"],
 "data": [
  ["O=C(NC1CCCc2c1[nH]c1ccc(Cl)cc21)c1cc[nH]n1 (stereo not shown)", 7.14],
  ["O=C(N[C@H]1CCCc2c1[nH]c1ccc(Cl)cc21)c1ccccn1 [Example 45C]", 5.22],
  ["COc1cccc(C(=O)NC2CCCc3c2[nH]c2ccc(Br)cc32)c1 (stereo not shown)", 7.55]
]}

[I] Cn1cncc1C(=O)NC1CCCc2c1[nH]c1ccc(Cl)cc21 (stereo not shown)
[II] COc1ccc(C(=O)NC2CCCc3c2[nH]c2ccc(Br)cc32)cc1 (stereo not shown)
Of I and II , whose reported pIC50 is numerically smaller? Please reply using the label of the selected record.
I
(I: 6.09, II: 7.66)

====

Test system: episomal HPV16 DNA in W12-20850 cells
Assay: W-12 cellular assay (episomal HPV-16 DNA, hybrid capture)
Format: cell-based, HPV16 (human papillomavirus)
Settings: Human papillomavirus 16, 96 h, four days incubation, episomal HPV-16 DNA quantified by hybrid capture, inhibition relative to untreated control cells
Description: Compounds of the current invention are believed useful in the treatment and/or prophylaxis of conditions and diseases associated with HPV infection. Activity mediated through HPV was determined using the following W-12 cellular assay. […] For the assay, W12-20850 cells were seeded into a 96 well plate-containing compound. […] The percent inhibition relative to untreated control cells was then determined. […]
measurement_label: IC50 (nM)

{"columns": ["molecule", "IC50 [nM]"],
 "data": [
  ["O=C(N[C@@H]1CCCc2c1[nH]c1ccc(Cl)cc21)c1ccccc1 [Example 36B]", 20],
  ["O=C(NC1CCCc2c1[nH]c1ccc(Cl)cc21)c1ccccn1 (stereo not shown) [Example 45A]", 10],
  ["O=C(NC1CCCc2c1[nH]c1ccc(Br)cc21)c1ccc(Cl)cc1 (stereo not shown)", 17],
  ["O=C(N[C@@H]1CCCc2c1[nH]c1ccc(Br)cc21)c1ccccc1 [Example 14B]", 10],
  ["CN(C)c1ccc(NC(=O)NC2CCCc3c2[nH]c2ccc(Br)cc32)cc1 (stereo not shown)", 237],
  ["Cc1ccc(C(=O)NC2CCCc3c2[nH]c2ccc(Br)cc32)cc1 (stereo not shown)", 8],
  ["Cc1ccc(S(=O)(=O)NC2CCCc3c2[nH]c2ccc(Br)cc32)cc1 (stereo not shown)", 24],
  ["O=C(NC1CCCc2c1[nH]c1ccc(Br)cc21)OCc1ccccc1 (stereo not shown)", 44],
  ["O=C(NC1CCCc2c1[nH]c1ccc(Br)cc21)c1ccc(C(F)(F)F)cc1 (stereo not shown)", 58],
  ["Cc1ccccc1C(=O)NC1CCCc2c1[nH]c1ccc(Br)cc21 (stereo not shown)", 497]
]}

[1] O=C(CCc1ccccc1)NC1CCCc2c1[nH]c1ccc(Br)cc21 (stereo not shown)
[2] O=C(Cc1ccccc1)NC1CCCc2c1[nH]c1ccc(Br)cc21 (stereo not shown)
[3] Cc1cccc(C(=O)NC2CCCc3c2[nH]c2ccc(Br)cc32)c1 (stereo not shown)
[4] COc1ccc(NC(=O)NC2CCCc3c2[nH]c2ccc(Br)cc32)cc1 (stereo not shown)
Ascending by IC50, please: list the molecules accordingly. Ranked list of labels, please, in the requested order.
3, 2, 1, 4
